B1: TPR t1 (parent)
chain: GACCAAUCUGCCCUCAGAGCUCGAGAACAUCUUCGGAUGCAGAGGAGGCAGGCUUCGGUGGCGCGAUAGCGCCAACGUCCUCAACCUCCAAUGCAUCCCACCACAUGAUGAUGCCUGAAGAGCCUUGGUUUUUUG

variants of: B1; assay: polymerase ribozyme fitness, log enrichment relative to wild type (log ratio); higher = more active; in vitro selection for triplet polymerase activity
Labels assigned by polymerase ribozyme fitness (log ratio) range: lower bin = under -4, middle bin = from -4 up to -2, upper bin = -2 and over

* C8U A24G G36A G44U | middle bin
* C70U C80A U87A | lower bin
* C72G G117C U130G | lower bin
* G61A U92C | upper bin
* A6U C28G G45U C56G C64A G120C | lower bin
* C12G G71C U96A A108G C123G | lower bin
* A84U U106G A118G | upper bin
* C3U G60A C82A U106A G120A | upper bin
* G71C U78A | upper bin
* U106C G113C | middle bin
* C11U A43U C70U C98U G122U | lower bin
* C31A C40U A50U G60A C101A U106A C115U A119G | lower bin
* G17C U54G C94A U112G | lower bin
* C56G C89G U96A | middle bin
* A95G A103C G120U G135U | lower bin
* U7C A37U G60A | upper bin
* C12G G44A G48U A103G U112A C115A | lower bin
* A41G C64U A91U U106A G110A | lower bin
* C13U A26G G58A | middle bin
* U21A C104U | upper bin
* G10U C13G U78A C104U | upper bin
* U78A C94A U125G | middle bin
* G35A C88U C99A | lower bin
* G45U C89U U92A U106A U133G | middle bin
* C13G A50G G51C G57U A74U | middle bin
* C13U C20G G63C | lower bin
* G52U C53G U54C U78C C97U | upper bin
* U54G C62A U78C C123U U126A | lower bin
* C20U A37U C72G C101A | middle bin
* A37G C70U C79A | middle bin
* C56U U130C | upper bin
* G39C G71U | upper bin
* C8G G52A G63C C94G G113C U131G | lower bin
* A41U C53U C73A G120U | middle bin
* C40A G60A G113U G122C | lower bin
* C4U C11G U54A G63C C101A U112C | upper bin
* G51A C56A G93A C114U G117U | lower bin
* G93C A121U U133G | upper bin
* U54C G71C A91U U116C | lower bin
* G52A C124U | upper bin
* U92C C123G | upper bin
* C40A G93A A111C | upper bin
* C49G U106G U116C | lower bin
* G39U G128C | middle bin
* G44C U125A | upper bin

Source of measurements: the RNAGym collection of RNA variant scans (doi:10.1073/pnas.2313332121)
